assay: Rat in vivo pharmacokinetic assay (IV and PO); parameters: species or system SD rats; settings: plasma; male SD rat, IV, 2 mg/kg; read-out: T1/2 (half-life) (converted)
measurement-kind: half-life (h)

OC[C@H]1O[C@@H](c2ccc(Cl)c(Cc3ccc(O[C@H]4CCOC4)cc3)c2)[C@H](O)[C@@H](O)[C@@H]1O [BI-10773, reference compound] : 0.7

P. OC[C@H]1OC(c2ccc(Cl)c(Cc3ccc(C4CCC5(CCC5)CC4)cc3)c2)[C@H](O)[C@@H](O)[C@@H]1O (stereo partly shown)
Q. OC[C@H]1OC(c2ccc(Cl)c(Cc3ccc(OC4C5COCC54)cc3)c2)[C@H](O)[C@@H](O)[C@@H]1O (stereo partly shown)
R. OC[C@H]1OC(c2ccc(Cl)c(Cc3ccc(OC4CC5CC5C4)cc3)c2)[C@H](O)[C@@H](O)[C@@H]1O (stereo partly shown)
Problem: hey, can you rank those molecules up there by half-life? biggest number first please Field: ranking. Enter the labels in the order requested.
Solution: R, P, Q
(R: 6.81 h, P: 3.75 h, Q: 0.88 h)

The reported measurements were obtained from patent US10253010B2.
